Values compiled from patent US4469705A.

tested on: SRS-A induced contraction of guinea pig ileum; assay: Guinea pig ileum: inhibition of SRS-A induced contraction (isolated tissue); assay type: cell-based; details: Cavia porcellus, atropine and chlorpheniramine (1×10^-5 M) present, test drug 5 min before SRS-A, read-out: G.P. Ileum IC50
METRIC NAME: IC50 (µM)

COMPOUND	TARGET SYSTEM	IC50, µM
CCCCCCCCCCC[C@@H](SCCC(=O)O)[C@H](O)CCCCC(=O)O (relative stereo) [Example 2]	SRS-A induced contraction of guinea pig ileum	9
CCCCCCCCCCCC(SC[C@H](N)C(=O)OC)C(O)CCCCC(=O)OC (stereo partly shown) [Example 3]	SRS-A induced contraction of guinea pig ileum	14

(I) CCCCCCCCCCC[C@@H](SCCC(=O)OC)[C@H](O)CCCCC(=O)OC (relative stereo) [Example 1]
(II) CCCCCCCCCCC[C@@H](SCCC(=O)O)[C@@H](O)CCCCC(=O)O (relative stereo) [Example 5]
[Q] So which one has the bigger IC50 here, I or II ? Indicate your choice by writing its label.
[A] I

###

tested on: contraction of guinea pig parenchymal tissue by immunological release of SRS-A; test: Guinea pig parenchymal strip: inhibition of contraction by immunological release of SRS-A (isolated tissue); format: cell-based; details: Cavia porcellus; egg albumin challenge of sensitized tissue; chlorpheniramine (10^-5 M), indomethacin (10^-4 M); test compound 30 min before challenge
METRIC NAME: IC50 (µM)
Numeric only. Scale: µM

Reference set, count: 2
MOLECULE	TARGET SYSTEM	UNIT OF MEASUREMENT	MEASUREMENT
CCCCCCCCCCC[C@@H](SCCC(=O)O)[C@@H](O)CCCCC(=O)O (relative stereo) [Example 5]	contraction of guinea pig parenchymal tissue by immunological release of SRS-A	µM	3.6
CCCCCCCCCCC[C@@H](SCCC(=O)OC)[C@@H](O)CCCCC(=O)OC (relative stereo) [Example 4]	contraction of guinea pig parenchymal tissue by immunological release of SRS-A	µM	1.1

# evaluate next
[Q] What does the data say about its IC50? Entry: CCCCCCCCCCC[C@@H](SCCC(=O)O)[C@H](O)CCCCC(=O)O (relative stereo) [Example 2]
[A] 100
